ASSAY_COMMENT: BSK_3C_TissueFactor: BioMAP Diversity Plus: 3C Assay for Tissue Factor Biomarker Activity (AID 2282997)
DETAILS: BioMAP 3C HUVEC, tissue factor biomarker readout; actives raise or lower the signal
The source made the active and inactive calls. How the source made its calls: active means hit-call score of the fitted dose curve at least 0.9, where 1 is the maximum; inactive means score below 0.9.
Output constraint: value belongs to y = active, n = inactive

Recorded results for 5 compounds are shown here.
COMPOUND | LABEL_CLASS
N#Cc1c(-c2ccc(Cl)cc2)[nH]c(C(F)(F)F)c1Br | y
COP(=O)(O)OC | n
CCN(CC)c1ccccc1 | n
c1ccc2c(c1)sc1ccccc12 | n
O=C(O)C(Cl)Cl | n

Recorded call for `c1ccc(OP(Oc2ccccc2)Oc2ccccc2)cc1` ?
n

Recorded call for `CCCCOCCOP(=O)(OCCOCCCC)OCCOCCCC` ?
n

Recorded call for CCCCC(CC)COC(=O)c1c(Br)c(Br)c(Br)c(Br)c1C(=O)OCC(CC)CCCC (stereo not drawn) ?
n

Recorded call for `COP(N)(=S)OC` ?
n

Recorded call for `OCC(F)(F)OC(F)(F)C(F)(F)OC(F)(F)CO` ?
n

Recorded call for `ClC(Cl)(Cl)c1ccccc1` ?
n

Recorded call for `OCC(F)(F)OC(F)(F)C(F)(F)OC(F)(F)C(F)(F)OC(F)(F)CO` ?
n

Recorded call for O=P(OCC(Br)CBr)(OCC(Br)CBr)OCC(Br)CBr (stereo not drawn) ?
n

* * *

Read-out: TIMP1, TIMP1 (gene 7076)
ASSAY_COMMENT: LTEA_HepaRG_TIMP1: Life Technologies and Expression Analysis (LTEA) Assay for TIMP1 using HepaRG (AID 2283534)
DETAILS: mRNA level, 48 h; actives raise or lower the signal
Active and inactive are the calls of the source. The calls were made as follows: active = hit-call score of the fitted dose curve at least 0.9, where 1 is the maximum; inactive = score below 0.9.
Output constraint: value belongs to active, inactive

Recorded results for 8 compounds are shown here.
COMPOUND | LABEL_CLASS
CCNc1nc(Cl)nc(NC(C)(C)C)n1 | inactive
CCC1(c2ccccc2)C(=O)N=C(O)NC1=O (configuration not stated) | inactive
c1ccc(OP(Oc2ccccc2)Oc2ccccc2)cc1 | inactive
Nc1cc2c3c(c1)C(c1ccccc1)=N[C@@H](NC(=O)c1cccnc1)C(=O)N3CC2 | inactive
CCOC(=O)c1ccccc1C(=O)OCC | inactive
c1cc2c3c(cccc3c1)CC2 | inactive
CN(C)C(=O)Cl | inactive
O=C(O)C1C(C(=O)O)C2(Cl)C(Cl)=C(Cl)C1(Cl)C2(Cl)Cl (configuration not stated) | inactive

Recorded call for CC(Cc1ccc(OCC(=O)O)cc1)NCC(O)c1csc(C(F)(F)F)n1 (configuration not stated) ?
inactive

Recorded call for `Cc1ccc(N)cc1N` ?
inactive

Recorded call for `O=P(Oc1ccccc1)(Oc1ccccc1)Oc1ccccc1` ?
active

Recorded call for `Cc1ccc(O)cc1C` ?
inactive

Recorded call for CCOP(=S)(Oc1ccc([N+](=O)[O-])cc1)c1ccccc1 (configuration not stated) ?
inactive

Recorded call for `CCCCN(CCCC)SN(C)C(=O)Oc1cccc2c1OC(C)(C)C2` ?
inactive

* * *

TARGET_UNDER_TEST: Transcription factor E2F1 (Homo sapiens)
ASSAY_COMMENT: ATG_E2F_CIS: Attagene CIS-FACTORIAL HepG2 Assay for human E2F Transcription Factor 1 (AID 2282935)
DETAILS: HepG2 Attagene cis-reporter, E2F reporter RNA transcripts; actives raise or lower the signal
Active and inactive are the calls of the source. How the source made its calls: active means hit-call score of the fitted dose curve at least 0.9, where 1 is the maximum; inactive means score below 0.9.
Output constraint: value belongs to 1 (yes) (active), 0 (no) (inactive)

Recorded results for 8 compounds are shown here.
COMPOUND | LABEL_CLASS
CC(C)(C)c1ccc(O)cc1 | 0 (no)
Cc1cc(C)c(C(=O)P(=O)(c2ccccc2)c2ccccc2)c(C)c1 | 0 (no)
O=S(=O)(c1ccc(O)cc1)c1ccc(O)cc1 | 0 (no)
c1cc2c3c(cccc3c1)CC2 | 0 (no)
Cc1ccc(C(=O)Cl)cc1 | 0 (no)
Nc1ccc(Sc2ccc(N)cc2)cc1 | 0 (no)
CCC(C)(C)c1ccc(O)cc1 | 1 (yes)
CCCCC(CC)COP(=O)(Oc1ccccc1)Oc1ccccc1 (stereo not given) | 0 (no)

Shift focus to the following entry.
Recorded call for `Nc1cc2c3c(c1)C(c1ccccc1)=N[C@@H](NC(=O)c1cccnc1)C(=O)N3CC2` ?
0 (no)

Where these numbers come from: PubChem BioAssay (EPA / NIEHS)
